- Target Entity: Fuc(a1-2)Gal(b1-3)GalNAc(a1-3)[Fuc(a1-2)]Gal(b1-4)Glc
- Assay Comment: glycan array binding signal (z-score within array); higher = stronger binding
- Condition Description: glycan notation: IUPAC condensed, linker removed
This excerpt belongs to a sample that is enriched for the strongest signals.
Listed here: items and their measured glycan array binding signal (z-score).

Epa11 (Candida glabrata) (protein) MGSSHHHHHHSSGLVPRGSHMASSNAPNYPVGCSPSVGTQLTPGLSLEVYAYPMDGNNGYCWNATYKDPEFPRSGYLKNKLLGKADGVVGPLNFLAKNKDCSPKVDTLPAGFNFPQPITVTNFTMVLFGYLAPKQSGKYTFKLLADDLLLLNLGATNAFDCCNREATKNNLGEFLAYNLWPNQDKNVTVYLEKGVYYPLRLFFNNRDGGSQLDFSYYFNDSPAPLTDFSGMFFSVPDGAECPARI = -0.518

As a next step, examine the binder that follows.
Recorded glycan array binding signal (z-score) (binder AcfC (Vibrio cholerae), Q57410 (protein) MKSKNRFLLISLLSFSTSVFADVNLYGPGGPHVPLIKVAESFEKSQSKRVNITFGPQATWNDKAKKNADILFGASEHSALAIAEGHSERFSKFNIHPVFMREAIILVKKGNPKNIKGMADLLKPGIGIVVNDGAGVSNTSGTAVWEDSVGRMKNVEKLQAFRSNIHVFAPNSGSARKAFVDGEDIDAWITWVDWAIANPTIGDMVRMEDEYRIYRDFNVVLAKNPSSEAIDFFDYLTKSKDAEAIFQHYGWFK ): -1.2
